Attribution: PubChem BioAssay

experiment: small-molecule microarray binders of probe aDKK1, primary screen, biochemical, biotinylated probe, 635/667 nm fluorescence (AID 1099); conditions: higher = more signal;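 also: score merges 667nm spot fluorescence with signal to noise across triplicate slides; reference of the scale not given here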

{"compound": "CC(C)C(=C=CC[C@H](O)c1cccc(OCCO)c1)C[C@H](O)COCc1ccccc1", "composite z-score": -0.27}
{"compound": "C=C[C@@H](COC(C)=O)N(Cc1ccccc1[N+](=O)[O-])S(=O)(=O)c1ccc(Br)cc1", "composite z-score": 0.278}
{"compound": "CC(C)C(O)C1C=CC2C(=O)N(c3ccccc3)C(=O)C2N1Nc1ccc(C#N)cc1 (stereo not given)", "composite z-score": 1.27}
{"compound": "C=C(COC)C(=O)CC[C@@H](OC(=O)c1cccnc1)c1ccc(CO)o1", "composite z-score": -0.2}
{"compound": "[N-]=[N+]=Nc1ccccc1C[C@]1(C(=O)NCCN2CCOCC2)N=C(c2ccc(OCCCO)cc2)O[C@H]1c1ccccc1", "composite z-score": 0.641}

---

Below, each entry is listed with its recorded composite z-score.
molecular target: Carbonic anhydrase 2 (Homo sapiens) (UniProt P00918); test: CAII small-molecule binders, profiling panel, biochemical, small-molecule microarray, Alexa647-labelled CAII (AID 1122); settings: CAII-A647 binding fluorescence, higher = more signal

{"compound": "C=CCC(OC(C)=O)[C@@H]1[C@@H](N(Cc2cc3ccccc3o2)C(=O)c2ccc(C)cc2)c2cc(OCCCO)ccc2N1C(=O)c1ccc2ccccc2c1 (some centres undefined)", "composite z-score": 0.0486}
{"compound": "C[C@]1(C(=O)NCc2ccccc2)c2ccccc2C(=O)N(Cc2cc(F)cc(C(F)(F)F)c2)[C@H]1c1ccc(CO)cc1", "composite z-score": 0.699}
{"compound": "CC(C)N1C(=O)c2ccccc2[C@@H](C(=O)NCCCN(C)C)[C@@H]1c1ccc(CO)cc1", "composite z-score": 0.901}
{"compound": "COC(=O)C1=CC(CCCO)=CC(C2CC2)N(Cc2sc3ccccc3c2Cl)C=C1C(=O)OC (centres undefined)", "composite z-score": 0.817}

---

experiment: S. cerevisiae RM11-1a growth modifiers, primary screen, strain RM11-1a, OD600, basal, 24 h (AID 1177); conditions: OD600, 24 h, higher = more signal, called active from +8 up or from −8 down;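 also: cultures grown under basal conditions with no added stressor; test concentration not given here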
Rule: z-score under 0.4 gives FALSE, otherwise TRUE.

{"compound": "COc1ccc(C(=O)Nc2cccc(CN3C(=O)[C@]4(O[C@H](CC(=O)N5CCC[C@H]5CO)[C@@H]([Si](C)(C)c5ccc(OC)cc5)[C@@H]4C)c4ccccc43)c2)cc1", "class-name": "FALSE"}
{"compound": "O=C1OCC=C[C@H]2OC34C=CCN(c5ccc(Cl)cc5)C(=O)[C@H]3N(CCCCCCO)C(=O)[C@@H]4[C@@H]12 (some centres not stated)", "class-name": "FALSE"}
{"compound": "CCOC(=O)C1=C[C@@H](C(C)C)N(S(=O)(=O)c2ccc(C)cc2)[C@H]1c1ccc(C(C)C)cc1", "class-name": "TRUE"}
{"compound": "CN(C)C(=O)[C@]1(CCC(=O)OC(C)(C)C)N=C(c2ccc(OCCCO)cc2)O[C@@H]1c1ccccc1N=[N+]=[N-]", "class-name": "TRUE"}
{"compound": "O=C1O[C@H](c2ccccc2)[C@H](c2ccccc2)N2[C@H]1[C@@H](C(=O)O)[C@]1(C(=O)Nc3ccc(C#CC4(O)CCCCCC4)cc31)[C@H]2c1ccc(OCCO)cc1", "class-name": "TRUE"}
{"compound": "CC(C)c1ccc(NN2C(C(O)c3ccc(N(C)C)cc3)C=CC3C(=O)N(c4ccccc4)C(=O)C32)cc1 (configuration not stated)", "class-name": "FALSE"}
